Test system: SN12C renal
Assay: NCI-60 one-dose screen, 48 h (100 = growth as untreated, 0 = no growth, -100 = all killed)
Conditions: 10 µM unless noted
The panel holds about 83,000 compounds, 20% with a hit somewhere; the sample as a whole holds those more often.
Rule: t for growth not less than 90%, f for anything less.

Recorded results for 5 molecules are shown here.
MOLECULE | TEST SYSTEM | LABEL
O=C(c1ccccc1)c1c(/C=C/c2ccccc2)c2ccccc2[nH]c1=O | SN12C renal | t
N=C(N)c1ccc(-c2ccc(-c3cncc4ccccc34)s2)cc1F | SN12C renal | f
O=C(NCc1cn(Cc2cccc(Oc3ccccc3)c2)nn1)c1cccnc1Nc1ccc(F)cc1 | SN12C renal | f
N#Cc1c(-c2ccccc2)nc(SCC(=O)N2CCN(c3ccccc3)CC2)[nH]c1=O | SN12C renal | t
O=C(Nc1cccc(-n2cc(-c3ccncc3)c(-c3ccc(Cl)c(O)c3)n2)c1)c1ccc(N2CCOCC2)c(C(F)(F)F)c1 | SN12C renal | f

Data request: Check if growth >= 90% (inclusive). Item: CC(C)CC1NC(C)(C)CO1 (configuration not stated)
Data returned: t

Data request: I'd appreciate it if you could say whether COc1cc(Nc2ncccc2C(=O)NCc2cn(Cc3cccc(Oc4ccccc4)c3)nn2)cc(OC)c1 has growth at least equal to 90%.
Data returned: f

Data request: growth >= 90% for COc1ccc(-c2nc(N3CCCC3=O)sc2Br)cc1OC ?
Data returned: t

Data request: growth >= 90% for CCOC(=O)NNC(=S)Nc1ccccc1 ?
Data returned: t

Data request: Check this molecule for growth at or above 90%: CCCCN(CCCC)C(=N)c1ccnc2ccccc12
Data returned: t

Data request: Check the entry C=C1C(=O)O[C@H]2[C@H]1CC/C(Cn1cc(-c3cccc(Cl)c3)nn1)=C\CC[C@@]1(C)O[C@@H]21 : does growth equal or exceed 90%?
Data returned: f

Data request: # check: growth of COc1ccc(-c2[nH]nc(N)c2-c2cc(OC)c3c(c2)OCO3)cc1 is greater than or equal to 90%
Data returned: f
